Each record here notes measured PBMC LD50.
test system: peripheral blood mononuclear cells (PBMC); conditions: human, 72 h

molecule	PBMC LD50
COc1cc(/C=C2\COC/C(=C\c3ccc(O)c(OC)c3)C2=O)ccc1O	131.8 ± 14.52 µM
COc1cc(/C=C2\CSC/C(=C\c3ccc(O)c(OC)c3)C2=O)ccc1O	186.4 ± 35.15 µM
O=C(/C=C/c1ccc(O)cc1)CC(=O)/C=C/c1ccc(O)cc1 [Compound 3, reference compound]	134.1 ± 13.30 µM
COc1cc(/C=C2\CCC/C(=C\c3ccc(O)c(OC)c3)C2=O)ccc1O	>200 µM
COc1cc(/C=C2\C[S+]([O-])C/C(=C\c3ccc(O)c(OC)c3)C2=O)ccc1O (stereo not shown)	>200 µM
COc1cc(/C=C2\CC/C(=C\c3ccc(O)c(OC)c3)C2=O)ccc1O	141.1 ± 18.53 µM
COc1cc(/C=C2\CN(C)C/C(=C\c3ccc(O)c(OC)c3)C2=O)ccc1O	73.25 ± 5.87 µM
COc1cc(/C=C/C(=O)CC(=O)/C=C/c2ccc(O)c(OC)c2)ccc1O [Compound 1, reference compound]	146.5 ± 12.08 µM
COc1cc(/C=C2\CS(=O)(=O)C/C(=C\c3ccc(O)c(OC)c3)C2=O)ccc1O	173.0 ± 37.4 µM
COc1cc(/C=C/C(=O)c2ccc(O)c(OC)c2)ccc1O	119.1 ± 16.35 µM

###

assay: Cytotoxicity (MTT) on LLC-MK2 host cells; format: cell-based; details: rhesus monkey; 120 h, MTT; read-out: LLC-MK2 (Host Cells) 120 h IC50
metric name: IC50 at 120 h (µM)

molecule	metric name	result
COc1cc(/C=C/C(=O)c2ccc(O)c(OC)c2)ccc1O [Compound 5]	IC50 at 120 h	8.72

Where do these numbers come from? They come from paper PMC12030033.
